Where do these numbers come from? They come from a melting point compilation (Tetko et al.).

Measurement Kind: melting point (°C)
Give just the numeric value; °C need not be written.

CCCCCCCc1ccc(O)cc1 26.5
Nc1cccc(Cl)c1C(=O)O 159

Continue with the next compound.
Data request: So what does the record say about melting point for CCc1cccc(CC)c1NC(=O)CCl ?
Data returned: 130

###

Below, each entry is listed alongside its reported melting point.

Compound	melting point
CO[C@@H](C)[C@H](N)C(=O)O	220 to 224 °C
CC(=O)OCC1OC(n2ncc(=O)[nH]c2=O)C(OC(C)=O)C1OC(C)=O (centres undefined)	99 to 101 °C

Data request: What melting point value was documented for this compound, CC12CC3(C)CC(C)(C1)CC(Br)(C2)C3 ?
Data returned: 101 to 102 °C

Data request: Same again, this time with O=C(c1ccccc1)c1cc2c(cc1Br)OCCCO2
Data returned: 105 to 107 °C

Data request: Lookup CC(=O)c1ccc(F)c(Cl)c1
Data returned: 42 to 44 °C

Data request: Try the compound NC(=C(N)c1ccccc1)c1ccccc1
Data returned: 108 °C

Data request: Next entry: CCCc1c(O)ccc2c(=O)cc(C(=O)O)oc12
Data returned: 264 to 267 °C

Data request: Consider next the compound Cc1nc(S(=O)(=O)Cl)cn1C in the same way.
Data returned: 91 to 94 °C

Data request: Can you handle CC1(C)C2CCC(C2)C12COC(=O)N2 (single isomer, unassigned; (-)) next?
Data returned: 227 to 229 °C

Data request: Same lookup for Cc1ccc([N+](=O)[O-])cc1N=C=S , please.
Data returned: 60 to 62 °C

Data request: // next record Cc1ccc(S(=O)(=O)NN=Cc2ccccc2[N+](=O)[O-])cc1
Data returned: 153 to 156 °C

Data request: Same question for CC(N)C(C)(C)C (centres undefined) please.
Data returned: -20 °C

Data request: Can you handle O=[N+]([O-])c1ccc2[nH]ccc2c1 next?
Data returned: 205 to 207 °C

Data request: Consider next the compound CCCC=NO in the same way.
Data returned: -29.5 °C

Data request: Also, NNC(=O)CSc1ccccc1[N+](=O)[O-] please.
Data returned: 161 to 171 °C

Data request: Another compound to look at: COc1c(Cl)cc([N+](=O)[O-])cc1Cl
Data returned: 97 to 100 °C

Data request: Nc1cc(C(F)(F)F)ccc1N1CCCCC1 ?
Data returned: 41 to 43 °C

###

Recorded melting point for the following molecules
Write the answer as a number in °C, unit excluded.

These solved cases illustrate the format of a correct answer.
Molecule	Unit Spec	melting point
CC=C1CCC2C3CC=C4CC(OC(C)=O)CCC4(C)C3CCC12C (stereo unspecified)	°C	137
O=C(NC(=O)c1c(F)cccc1F)Nc1cc(Cl)c(Oc2ncc(C(F)(F)F)cc2Cl)c(Cl)c1	°C	223
COc1cc(O)cc(O)c1	°C	80.3
CN(O)C(=O)Cc1ccc(OCc2ccccc2)cc1	°C	96
O=C(Cl)OCC(Cl)(Cl)Cl	°C	1
N#Cc1ccncc1C#N	°C	80
C/C(Cl)=C/C(=O)O	°C	61
CC(=O)C(F)(F)F	°C	-78

Now let's try a different one.
Data request: I am curious: what melting point value has been reported for COC(=O)c1ccccc1[N+](=O)[O-] ?
Data returned: -13

###

Measurement Kind: melting point

Illustrative cases are given below, each with its answer.
Compound	melting point
O=C1c2ccccc2C(=O)N1Cl	185 to 189 °C
N#CCc1c(C#N)c(N)nc(Cl)c1C#N	257 to 259 °C
O=C=Nc1ccc2c(c1)OCCOCCOCCOCCO2	35 to 39 °C

Data request: melting point for Cn1nc(CCl)cc1-c1cccs1 ?
Data returned: 41 to 42 °C

Data request: // repeat for CC(=O)ON(/C=C1\C(=O)C2(C)CCC1C2(C)C)c1ccccc1 (configuration not stated) and report
Data returned: 162 to 164 °C

Data request: And then Sc1nnc(-c2ccco2)n1-c1ccc(OCc2ccccc2)cc1 , what is it?
Data returned: 236 to 238 °C

Data request: Same question for O=C1OC(c2ccccc2)=NC1=Cc1ccc(Cl)cc1 please.
Data returned: 192 to 193 °C

###

Parameter melting point: see the listing below.

Example entries begin here.
CCOC(=O)c1csc(N2CCOCC2)n1 88.5 to 90 °C
O=C(O)C(F)(F)C(F)(F)C(F)(F)C(F)(F)C(F)(F)C(F)(F)C(F)(F)C(F)(F)C(=O)O 154 to 160 °C

Data request: Field request: melting point | item: O/N=C(\Cc1ccccc1)c1ccc2ccccc2c1
Data returned: 128 to 130 °C

###

Measurement Kind: melting point

Compound	melting point
O=Cc1ncccc1F	49 to 52 °C
Cc1noc(-c2ccc(C(=O)Cl)cc2)n1	115 to 117 °C
CCCCCCCCCCCCCCCCS(=O)(=O)c1ccc(N)cc1	115 to 117 °C
COc1ccc(/C(C)=C/C(C)=O)cc1	52.5 to 53 °C
Cc1nccn1-c1cccc(C(=O)O)c1	182 to 184 °C
N#Cc1c[nH]cc1-c1cccc(Cl)c1Cl	150 °C

Data request: Look up melting point: CCCCCCCCCCCCCCCc1cccc(O)c1O
Data returned: 59.5 °C

Data request: Same lookup for CC(NC(=O)COCCN1C(=O)c2ccccc2C1=O)C(=O)NC(CCC(=O)O)C(=O)O (configuration not stated) , please.
Data returned: 192 to 195 °C

Data request: Further, for Nc1cc(=O)oc2ccccc12 ?
Data returned: 232 to 234 °C

Data request: Next: N#C/C(=N/Nc1ccc(F)cc1)c1nc(-c2ccc(Cl)cc2)cs1
Data returned: 225 °C

Data request: Subsequent entry: COc1cc(Cl)c(NC(C)=O)c(Cl)c1
Data returned: 186 to 188 °C

Data request: Let us now turn to FC(F)C(F)(F)C(F)(F)C(F)(F)C(F)(F)C(F)(F)C(F)(F)C(F)(F)C(F)(F)C(F)F
Data returned: 42 to 43 °C

Data request: How about this compound: O=Cc1ccc(-c2ccccn2)cc1
Data returned: 51 to 53 °C

Data request: N#CC1(c2ccc(Cl)cc2)CC1 ?
Data returned: 52 to 56 °C

###

Catalogue of melting point values

O=C(O)C=Cc1cccc(OC(F)(F)F)c1 93 to 96 °C
Oc1ccc(/C=C/c2ccccc2)cc1 185 to 189 °C

// next item, melting point requested
Data request: Sample COc1cc([N+](=O)[O-])c(Cl)cc1N — what was its melting point?
Data returned: 131 to 133 °C

###

Let's look at some compounds and their measured melting point.

Compound	melting point
COC(=O)c1sc(Br)c(Br)c1O	129 to 131 °C

We next turn to a different compound, shown below.
Data request: Return reported melting point; argument: CN(C(=O)Cl)c1ccccc1
Data returned: 88.5 °C

###

The reader will find reported melting point values listed item by item below.

For orientation, consider the following solved cases.
Compound	Measurement Kind	Endpoint Value
CC(=NOCc1cccc(C(=O)O)c1)c1ccc(Cl)cc1	melting point	154 to 157 °C
COc1cc([N+](=O)[O-])ccc1C	melting point	69 to 74 °C
NC(=O)COc1cccc(Cl)c1	melting point	123 to 126 °C
N[C@H]1CC[C@H](N)CC1	melting point	68 to 71 °C
Nc1ccc(Cl)nn1	melting point	210 to 211 °C
CC(C)(C)OC(=O)N1CCN(Cc2cccc(C=O)c2)CC1	melting point	67 to 68 °C
CCOC(=O)C1=NN(c2ccccc2)C(=O)C1=CC1C(=O)N(c2ccccc2)N=C1C(=O)OCC (configuration not stated)	melting point	179 to 180 °C
Cc1ncc(C(=O)O)c(-c2ccccc2)n1	melting point	210 to 211 °C

Data request: What value of melting point has been recorded for this entry: O=C(c1ccccc1)N1CCc2cc3c(cc21)CCN3C(=O)c1ccccc1
Data returned: 293 to 294 °C

Data request: Another compound to look at: O=C1Cc2cc(O)ccc2O1
Data returned: 190 to 195 °C

Data request: Request: O=C(O)c1cnn(-c2ccc(Cl)cc2)c1C(F)(F)F
Data returned: 137 to 138 °C

Data request: Moving on to O=C1C(c2ccccc2)=C(c2ccccc2)c2ccccc21
Data returned: 151 to 155 °C

###

// values below are reported melting point

Example entries begin here.
CCOC(=O)c1c(NC(=O)Nc2ccccc2)sc2c1CCCC2 150 to 152 °C
CCOC(=O)c1nnn2c1nc(S)c1ccccc12 171 to 172 °C

We now examine a further compound.
Data request: Form field: reported melting point of CCCc1c(C)nc(NC(=O)NS(=O)(=O)c2cccs2)nc1O
Data returned: 210 to 212 °C

###

Measurement Kind: melting point

c1ccc(N2CCOCC2)cc1 51 to 54 °C

Data request: Entry Cc1ccc(N)c(C(=O)NN)c1 has what melting point?
Data returned: 133 to 134 °C

Data request: CC(=O)N=c1c(-c2ccccc2)cc2cc3cc(-c4ccccc4)c(=NC(C)=O)n(C(C)=O)c3cc2n1C(C)=O , same question.
Data returned: 238 to 240 °C
